pIC50: −log10 of the molar value.
Study the reported pIC50 values for RON (Homo sapiens, UniProt Q04912) given below; they originate from different publications.

Known pIC50 results, listed for orientation:
Nc1ncc(-c2cnn(C3CCNCC3)c2)cc1-c1nc2c(s1)CCCC2: ≥ 7.00
Nc1ncc(-c2cnn(C3CCNCC3)c2)cc1-c1nc2cccc(Br)c2s1: ≥ 7.00
O=C(Nc1ccc(Oc2ccnc3c2CN(CC(F)(F)F)C(=O)N3)c(F)c1)c1cccn(-c2ccc(F)cc2)c1=O: 7.00 to 8.00
Nc1ncc(-c2cnn(CCC(=O)N3CCC(O)CC3)c2)cc1-c1nc2ccccc2s1: 4.70 to 6.00
CC(C)n1cc(-c2ccc(F)cc2)c(=O)c(C(=O)Nc2ncc(Oc3ccnc(N)c3Cl)cn2)n1: 7.72
Nc1ncc(-c2ccc(C(=O)N3CCCCC3)cc2)cc1-c1nc2ccccc2s1: < 4.70

Entry COc1ccc2sc(-c3cc(-c4cnn(C5CCNCC5)c4)cnc3N)nc2c1 , tested on RON (Homo sapiens, UniProt Q04912), has a reported pIC50 of 6.00 to 7.00

Entry Nc1ncc(-c2cnn(C3CCN(CC(=O)N4CCCC4)CC3)c2)cc1-c1nc2ccccc2s1 , tested on RON (Homo sapiens, UniProt Q04912), has a reported pIC50 of 6.00 to 7.00

Entry CC(C(=O)N1CCCC1)n1cc(-c2cnc(N)c(-c3nc4ccccc4s3)c2)cn1 (centres unmarked) , tested on RON (Homo sapiens, UniProt Q04912), has a reported pIC50 of 6.00 to 7.00

Entry CC(Oc1cc2sc(NC(=O)NCCN3CCCCC3)nc2cc1F)c1c(Cl)ccc(F)c1Cl (centres unmarked) , tested on RON (Homo sapiens, UniProt Q04912), has a reported pIC50 of 5.00 to 6.30

Entry CNC(=O)COc1ccc(-c2cnc(N)c(-c3nc4ccccc4s3)c2)cc1 , tested on RON (Homo sapiens, UniProt Q04912), has a reported pIC50 of 4.70 to 6.00

Entry Nc1ncc(-c2cnn(C3CCNCC3)c2)cc1-c1nc2c(C(F)(F)F)cccc2s1 , tested on RON (Homo sapiens, UniProt Q04912), has a reported pIC50 of 6.00 to 7.00

Entry CC(Oc1ccc2nc(NC(=O)NCCN3CCOCC3)sc2c1)c1c(F)ccc(F)c1F (centres unmarked) , tested on RON (Homo sapiens, UniProt Q04912), has a reported pIC50 of 5.00 to 6.30

Entry Nc1nccc(Oc2ccc(NC(=O)c3nn(C4CC4)cc(-c4ccc(F)cc4)c3=O)nc2)c1Cl , tested on RON (Homo sapiens, UniProt Q04912), has a reported pIC50 of 8.15

Entry CCN1Cc2c(Oc3ccc(NC(=O)Nc4cc(C)oc4C(F)(F)F)cc3F)ccnc2NC1=O , tested on RON (Homo sapiens, UniProt Q04912), has a reported pIC50 of 7.00 to 8.00

Entry Nc1ncc(-c2cn[nH]c2)cc1-c1cc2c(Cl)ccc(F)c2cn1 , tested on RON (Homo sapiens, UniProt Q04912), has a reported pIC50 of 4.70 to 6.00

Entry CC(Oc1ccc2nc(NC(=O)NCCN3CCOCC3)[nH]c2c1)c1cc(F)ccc1Cl (centres unmarked) , tested on RON (Homo sapiens, UniProt Q04912), has a reported pIC50 of 5.00 to 6.30
